- system_under_test: protein kinase C (PKC)
- assay: Mixed micelle assay of protein kinase C
- assay_conditions: pure cationic cholesterol derivative; diolefin, phosphatidyl serine and Ca2+ stimulated PKC; read-out: PKC Inhibition IC50
property_measured: pIC50
The meaning of pIC50 here: minus log10 of the concentration in molar units.

Before answering, review these 3 worked examples.
molecule	system_under_test	pIC50
CC(C)CCCC(C)C1CCC2C3CC=C4CC(C(=O)OC(CN(C)C)CN(C)C)CCC4(C)C3CCC12C (stereo not drawn) [Compound V]	protein kinase C (PKC)	3.19
CC(C)CCCC(C)C1CCC2C3CC=C4CC(OC(=O)CCC(=O)OCCN(C)CC[N+](C)(C)C)CCC4(C)C3CCC12C (stereo not drawn) [XIII]	protein kinase C (PKC)	4.70
CC(C)CCCC(C)C1CCC2C3CC=C4CC(C(=O)NCC[N+](C)(C)C)CCC4(C)C3CCC12C (stereo not drawn) [IV]	protein kinase C (PKC)	4.92

**Query** Could you share which pIC50 value was measured for CC(C)CCCC(C)C1CCC2C3CC=C4CC(OC(=O)CCC(=O)OC(CN(C)C)CN(C)C)CCC4(C)C3CCC12C (stereo not drawn) [Compound X] ?
**Result** 3.39

**Query** Requested field: pIC50. Item: CC(C)CCCC(C)C1CCC2C3CC=C4CC(C(=O)NCCN)CCC4(C)C3CCC12C (stereo not drawn) [Compound VII, Cholesteryl-3β-Carboxyamidoethyleneamine]
**Result** 3.61

**Query** So what does the record say about pIC50 for CC(C)CCCC(C)C1CCC2C3CC=C4CC(C(=O)OC(CN(C)C)C[N+](C)(C)C)CCC4(C)C3CCC12C (racemic) [Compound VI] ?
**Result** 4.96

**Query** Requested field: pIC50. Item: CC(C)CCCC(C)C1CCC2C3CC=C4CC(OC(=O)CCC(=O)NCCN(C)C)CCC4(C)C3CCC12C (stereo not drawn) [VIII]
**Result** 3.72

**Query** Reported pIC50, molecule CC(C)CCCC(C)C1CCC2C3CC=C4CC(OC(=O)CCC(=O)OC(CN(C)C)C[N+](C)(C)C)CCC4(C)C3CCC12C (racemic) [Compound XI] : ____
**Result** 4.82

**Query** // returns reported pIC50 for input CC(C)CCCC(C)C1CCC2C3CC=C4CC(OC(=O)CCC(=O)OCCN(C)CCN(C)C)CCC4(C)C3CCC12C (stereo not drawn) [XII]
**Result** 3.79

**Query** # lookup: pIC50 of CC(C)CCCC(C)C1CCC2C3CC=C4CC(OC(=O)CCC(=O)NCC[N+](C)(C)C)CCC4(C)C3CCC12C (stereo not drawn) [IX]
**Result** 4.23

**Query** Look up pIC50 for this molecule: CC(C)CCCC(C)C1CCC2C3CC=C4CC(C(=O)NCCN(C)C)CCC4(C)C3CCC12C (stereo not drawn) [Compound III]
**Result** 3.59
